// data source = ChEMBL document CHEMBL4402543

experiment: Stability in PBS; assay type: physicochemical; settings: buffer
PROPERTY MEASURED: Stability

CC(C(=O)OCCOc1ccc2oc(=O)ccc2c1)c1cccc(C(=O)c2ccccc2)c1 (racemic) :: Stable
CC(C(=O)OCCOc1ccc2ccc(=O)oc2c1)c1cccc(C(=O)c2ccccc2)c1 (racemic) :: Stable
O=C(Cc1ccccc1Nc1c(Cl)cccc1Cl)OCCOc1ccc2oc(=O)ccc2c1 :: Stable
COc1ccc2cc([C@H](C)C(=O)OCCOc3ccc4oc(=O)ccc4c3)ccc2c1 :: Stable
CC(C)Cc1ccc(C(C)C(=O)OCCOc2ccc3ccc(=O)oc3c2)cc1 (racemic) :: Stable

I'd like to know its Stability. The compound in question is O=C(Cc1ccccc1Nc1c(Cl)cccc1Cl)OCCOc1ccc2ccc(=O)oc2c1
Stable

---

experiment: Half life in Sprague-Dawley rat plasma by LC-MS/MS analysis; assay type: ADME, cell-free
Assignment: determine reported half-life for the given molecules.

What value of half-life has been recorded for this entry: CC1=C(CC(=O)OCCOc2ccc3ccc(=O)oc3c2)c2cc(F)ccc2/C1=C\c1ccc([S+](C)[O-])cc1 (stereo not given)
16.6 min

Further, for CC1=C(CC(=O)OCCOc2ccc3oc(=O)ccc3c2)c2cc(F)ccc2/C1=C\c1ccc([S+](C)[O-])cc1 (stereo not given) ?
5.5 min

Same lookup for CC(C(=O)OCCOc1ccc2ccc(=O)oc2c1)c1cccc(C(=O)c2ccccc2)c1 (racemic) , please.
2.1 min

Field entry: COc1ccc2cc([C@H](C)C(=O)OCCOc3ccc4oc(=O)ccc4c3)ccc2c1
1.1 min

Another: O=C(Cc1ccccc1Nc1c(Cl)cccc1Cl)OCCOc1ccc2oc(=O)ccc2c1
< 1 min

---

Test system Carbonic anhydrase 12 (Homo sapiens) (UniProt O43570), Ki listed for each of the compounds.
Number in µM, nothing else.

What does the record list as Ki for CC(C)Cc1ccc(C(C)C(=O)OCCOc2ccc3oc(=O)ccc3c2)cc1 (racemic) ?
0.459

Then what about the compound CC(C(=O)OCCOc1ccc2ccc(=O)oc2c1)c1cccc(C(=O)c2ccccc2)c1 (racemic) ?
0.0554

What do you have for CC(C)Cc1ccc(C(C)C(=O)OCCOc2ccc3ccc(=O)oc3c2)cc1 (racemic) ?
0.0053

Another compound to look at: CC(C(=O)OCCOc1ccc2oc(=O)ccc2c1)c1cccc(C(=O)c2ccccc2)c1 (racemic)
0.0831

---

assay: Half life in Sprague-Dawley rat plasma by LC-MS/MS analysis; format: ADME, cell-free
Give half-life for every item shown.

If you can, please state the reported half-life value of COc1ccc2cc([C@H](C)C(=O)OCCOc3ccc4ccc(=O)oc4c3)ccc2c1 .
< 1 min

Would you mind doing COc1ccc2c(c1)c(CC(=O)OCCOc1ccc3ccc(=O)oc3c1)c(C)n2C(=O)c1ccc(Cl)cc1 as well?
2 min

Please give the result for COc1ccc2c(c1)c(CC(=O)NCCOc1ccc3oc(=O)ccc3c1)c(C)n2C(=O)c1ccc(Cl)cc1 too.
> 240 min

Quick one: O=C(Cc1ccccc1Nc1c(Cl)cccc1Cl)NCCOc1ccc2ccc(=O)oc2c1
> 240 min

Same again, this time with CC(C(=O)NCCOc1ccc2ccc(=O)oc2c1)c1ccc(-c2ccccc2)c(F)c1 (stereo not drawn)
> 240 min

Another: O=C(Cc1ccccc1Nc1c(Cl)cccc1Cl)OCCOc1ccc2ccc(=O)oc2c1
< 1 min

Try the compound CC(C(=O)OCCOc1ccc2ccc(=O)oc2c1)c1ccc(-c2ccccc2)c(F)c1 (racemic)
2.4 min

Next up: COc1ccc2cc([C@H](C)C(=O)NCCOc3ccc4oc(=O)ccc4c3)ccc2c1
> 240 min

What do you have for O=C(Cc1ccccc1Nc1c(Cl)cccc1Cl)NCCOc1ccc2oc(=O)ccc2c1 ?
> 240 min

And for CC(C(=O)NCCOc1ccc2oc(=O)ccc2c1)c1ccc(-c2ccccc2)c(F)c1 (stereo not drawn) ?
> 240 min

Same lookup for CC(C(=O)OCCOc1ccc2oc(=O)ccc2c1)c1ccc(-c2ccccc2)c(F)c1 (racemic) , please.
1.3 min

Next compound up: CC(C(=O)NCCOc1ccc2oc(=O)ccc2c1)c1cccc(C(=O)c2ccccc2)c1 (stereo not drawn)
> 240 min

Also check CC(C)Cc1ccc(C(C)C(=O)OCCOc2ccc3ccc(=O)oc3c2)cc1 (racemic)
3.2 min

What about CC1=C(CC(=O)NCCOc2ccc3oc(=O)ccc3c2)c2cc(F)ccc2/C1=C\c1ccc([S+](C)[O-])cc1 (stereo not drawn) ?
> 240 min

Same read-out for CC(C)Cc1ccc(C(C)C(=O)OCCOc2ccc3oc(=O)ccc3c2)cc1 (racemic) ?
3.5 min

// query: CC1=C(CC(=O)NCCOc2ccc3ccc(=O)oc3c2)c2cc(F)ccc2/C1=C\c1ccc([S+](C)[O-])cc1 (stereo not drawn)
> 240 min

Lookup COc1ccc2c(c1)c(CC(=O)OCCOc1ccc3oc(=O)ccc3c1)c(C)n2C(=O)c1ccc(Cl)cc1
2.8 min

Then what about the compound CC(C(=O)NCCOc1ccc2ccc(=O)oc2c1)c1cccc(C(=O)c2ccccc2)c1 (stereo not drawn) ?
> 240 min

Next compound up: COc1ccc2c(c1)c(CC(=O)NCCOc1ccc3ccc(=O)oc3c1)c(C)n2C(=O)c1ccc(Cl)cc1
> 240 min

How about this compound: CC(C)Cc1ccc(C(C)C(=O)NCCOc2ccc3ccc(=O)oc3c2)cc1 (stereo not drawn)
> 240 min

Field entry: COc1ccc2cc([C@H](C)C(=O)NCCOc3ccc4ccc(=O)oc4c3)ccc2c1
> 240 min

Entry CC(C)Cc1ccc(C(C)C(=O)NCCOc2ccc3oc(=O)ccc3c2)cc1 (stereo not drawn) please
> 240 min

Note, next up: CC(C(=O)OCCOc1ccc2oc(=O)ccc2c1)c1cccc(C(=O)c2ccccc2)c1 (racemic)
4.7 min

---

Test system Carbonic anhydrase 4 (Homo sapiens), pKi listed for each of the molecules.
# pKi is unitless: minus log10 of the molar concentration; print number only

Looking for the measured pKi of CC(C)Cc1ccc(C(C)C(=O)OCCOc2ccc3ccc(=O)oc3c2)cc1 (racemic) , can you help?
8.19

Also check CC(C(=O)OCCOc1ccc2oc(=O)ccc2c1)c1cccc(C(=O)c2ccccc2)c1 (racemic)
8.64

Would you kindly repeat that for CC(C(=O)OCCOc1ccc2ccc(=O)oc2c1)c1cccc(C(=O)c2ccccc2)c1 (racemic) ?
8.17

Next up: CC(C)Cc1ccc(C(C)C(=O)OCCOc2ccc3oc(=O)ccc3c2)cc1 (racemic)
8.44

---

target: COX1 (Prostaglandin G/H synthase 1) (Homo sapiens); experiment: Inhibition of COX1 in human platelet rich plasma in assessed as inhibition of ADP-induced platelet aggregation at 10 uM incubated for 5 mins by turbidimetry based Born's method relative to control
Sequence (P23219 whole entry): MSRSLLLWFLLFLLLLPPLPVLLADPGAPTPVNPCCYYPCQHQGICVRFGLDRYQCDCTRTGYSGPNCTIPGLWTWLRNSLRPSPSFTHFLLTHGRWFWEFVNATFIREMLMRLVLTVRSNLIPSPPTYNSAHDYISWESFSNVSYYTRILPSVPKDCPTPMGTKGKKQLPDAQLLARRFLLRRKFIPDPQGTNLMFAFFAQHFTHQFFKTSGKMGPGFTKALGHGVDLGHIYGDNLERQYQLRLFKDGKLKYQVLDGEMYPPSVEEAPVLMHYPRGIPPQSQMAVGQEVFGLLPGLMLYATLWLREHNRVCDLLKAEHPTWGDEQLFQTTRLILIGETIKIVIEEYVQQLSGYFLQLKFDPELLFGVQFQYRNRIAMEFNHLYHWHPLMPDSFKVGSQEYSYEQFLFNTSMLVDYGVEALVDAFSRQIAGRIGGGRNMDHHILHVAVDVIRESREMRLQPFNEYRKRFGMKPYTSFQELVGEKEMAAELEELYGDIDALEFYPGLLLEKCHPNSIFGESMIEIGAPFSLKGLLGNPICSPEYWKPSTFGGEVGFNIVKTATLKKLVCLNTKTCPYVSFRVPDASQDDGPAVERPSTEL
PROPERTY MEASURED: inhibition at 5 min, 10 µM

Reported inhibition at 5 min, 10 µM for CC(C(=O)OCCOc1ccc2ccc(=O)oc2c1)c1cccc(C(=O)c2ccccc2)c1 (racemic) : what is it?
5 to 30%

Thanks! And CC(C)Cc1ccc(C(C)C(=O)NCCOc2ccc3ccc(=O)oc3c2)cc1 (stereo unspecified) ?
5 to 30%

Now the compound O=C(Cc1ccccc1Nc1c(Cl)cccc1Cl)NCCOc1ccc2ccc(=O)oc2c1
> 15%

What do we get for CC(C)Cc1ccc(C(C)C(=O)OCCOc2ccc3ccc(=O)oc3c2)cc1 (racemic) ?
5 to 30%

Repeat with CC(C(=O)O)c1cccc(C(=O)c2ccccc2)c1 (stereo unspecified) [KETOPROFEN]
25%

Field entry: O=C(O)Cc1ccccc1Nc1c(Cl)cccc1Cl [DICLOFENAC]
15%

Try this compound too: O=C(Cc1ccccc1Nc1c(Cl)cccc1Cl)NCCOc1ccc2oc(=O)ccc2c1
5 to 30%

Next: CC(C)Cc1ccc(C(C)C(=O)OCCOc2ccc3oc(=O)ccc3c2)cc1 (racemic)
5 to 30%

Now consider CC(C(=O)OCCOc1ccc2oc(=O)ccc2c1)c1cccc(C(=O)c2ccccc2)c1 (racemic) and answer again.
5 to 30%

Then CC(C)Cc1ccc(C(C)C(=O)NCCOc2ccc3oc(=O)ccc3c2)cc1 (stereo unspecified) ?
5 to 30%

And what about the compound CC(C)Cc1ccc(C(C)C(=O)O)cc1 (stereo unspecified) [IBUPROFEN] ?
> 60%

---

test: Half life in human plasma by LC-MS/MS analysis; format: ADME, cell-free
Could you please report measured half-life for the items listed next?

Requested read-out: half-life. Entry: O=C(Cc1ccccc1Nc1c(Cl)cccc1Cl)OCCOc1ccc2oc(=O)ccc2c1
0.533 h

Then CC(C(=O)OCCOc1ccc2ccc(=O)oc2c1)c1ccc(-c2ccccc2)c(F)c1 (racemic) ?
> 4 h

Follow-up item: CC1=C(CC(=O)OCCOc2ccc3oc(=O)ccc3c2)c2cc(F)ccc2/C1=C\c1ccc([S+](C)[O-])cc1 (stereo not given)
> 4 h

Record: COc1ccc2c(c1)c(CC(=O)OCCOc1ccc3oc(=O)ccc3c1)c(C)n2C(=O)c1ccc(Cl)cc1
> 4 h

What about O=C(Cc1ccccc1Nc1c(Cl)cccc1Cl)OCCOc1ccc2ccc(=O)oc2c1 ?
0.3 h

Also CC1=C(CC(=O)OCCOc2ccc3ccc(=O)oc3c2)c2cc(F)ccc2/C1=C\c1ccc([S+](C)[O-])cc1 (stereo not given) , if possible.
> 4 h

Another compound to look at: O=C(Cc1ccccc1Nc1c(Cl)cccc1Cl)NCCOc1ccc2ccc(=O)oc2c1
> 4 h

Cool, now O=C(Cc1ccccc1Nc1c(Cl)cccc1Cl)NCCOc1ccc2oc(=O)ccc2c1
> 4 h

Also CC(C(=O)NCCOc1ccc2ccc(=O)oc2c1)c1cccc(C(=O)c2ccccc2)c1 (stereo not given) , if possible.
> 4 h

Thanks! And CC(C(=O)OCCOc1ccc2oc(=O)ccc2c1)c1cccc(C(=O)c2ccccc2)c1 (racemic) ?
0.517 h
